tested on: Wheat and Barley and weed species; test: Post-Emergent Test III: postemergent herbicidal activity in wheat and barley, visual rating after 21 d and probit GR20/GR50/GR80/GR90 (Tables 9-13); format: in vivo; details: SETVI green foxtail (Setaria viridis); growth reduction of 50%; probit analysis
readout.name: GR50 SETVI (g ai/ha)

{"compound": "COC(=O)c1nc(-c2cc3c(cc2F)OC(F)(F)O3)c(F)c(N)c1Cl [Compound 9]", "readout.name": "GR50 SETVI", "measure.unit": "g ai/ha", "test.value": 21}
{"compound": "COC(=O)c1nc(-c2ccc3c(c2F)OC(F)(F)O3)c(F)c(N)c1Cl [Compound 10]", "readout.name": "GR50 SETVI", "measure.unit": "g ai/ha", "test.value": 36}
{"compound": "COC(=O)c1nc(-c2c(F)cc3c(c2F)OC(F)(F)O3)cc(N)c1Cl [Compound 46]", "readout.name": "GR50 SETVI", "measure.unit": "g ai/ha", "test.value": 106}
{"compound": "Nc1c(F)c(-c2ccc3c(c2F)OC(F)(F)O3)nc(C(=O)O)c1Cl [Compound 11]", "readout.name": "GR50 SETVI", "measure.unit": "g ai/ha", "test.value": 18}
{"compound": "COC(=O)c1nc(-c2ccc3c(c2)OC(C)(C)O3)c(F)c(N)c1Cl [Compound 8]", "readout.name": "GR50 SETVI", "measure.unit": "g ai/ha", "test.value": 11}
{"compound": "Nc1c(F)c(-c2cc3c(cc2F)OC(F)(F)O3)nc(C(=O)O)c1Cl [Compound 13]", "readout.name": "GR50 SETVI", "measure.unit": "g ai/ha", "test.value": 4}
{"compound": "Nc1c(F)c(-c2ccc3c(c2)OC(F)(F)O3)nc(C(=O)O)c1Cl [Compound 7]", "readout.name": "GR50 SETVI", "measure.unit": "g ai/ha", "test.value": 6}
{"compound": "Nc1cc(-c2cc3c(cc2F)OC(F)(F)O3)nc(C(=O)O)c1Cl [Compound 42]", "readout.name": "GR50 SETVI", "measure.unit": "g ai/ha", "test.value": 10}
